assay: Stability of the compound at 1 ug/uL after 2 hrs by RP-HPLC analysis in presence of proteinase K; assay type: ADME; details: proteinase K; read-out: Stability
VALUE_KIND: remaining at 2 h, 1 ug/uL (%)
Unit % implied. Number only.

# lookup: remaining at 2 h, 1 ug/uL of CCCCCCCCCCCCCC(=O)N[C@@H](Cc1c[nH]cn1)C(=O)N[C@@H](Cc1c[nH]cn1)C(=O)N1CCCN(C(=O)[C@H](Cc2c[nH]cn2)NC(=O)[C@H](Cc2c[nH]cn2)NC(=O)CCCCCCCCCCCCC)Cc2cc(cc(C(N)=O)c2)CN(C(=O)[C@H](Cc2c[nH]cn2)NC(=O)[C@H](Cc2c[nH]cn2)NC(=O)CCCCCCCCCCCCC)CCC1
80

meta.source: ChEMBL document CHEMBL2016446
